# SYSTEM UNDER TEST: HLA-A2-R65A heavy chain refolded with β2-microglobulin
# PROTOCOL DETAILS: radioligand binding
Non-standard residues stand in square brackets, D forms with d. No end group written: not given here. pS = N[C@@H](COP(=O)(O)O)C(=O)O
MEASURED QUANTITY: IC50 (nM)

In [3]: df
Out[3]:
                        binder  unit_info  meas_value
0  RQA[pS]IELPSM [RQApSIELPSM]         nM          20
